# Tested on: KM12 colon
# experiment: NCI-60 one-dose screen, 48 h
# condition: 10 µM unless noted
This is part of a sample that, as a whole, favours compounds with a hit. Of some 83,000 tested, about 20% had one in any assay. The source made the active and inactive calls. How the source made its calls: active means growth percent below 10; inactive means the rest.
Reply using exactly one outcome from TRUE for active, FALSE for inactive

Check out these entries, answers already filled in.
Asked: Called result for "COc1ccc2nc3cc(Cl)ccc3c(Nc3ccc(N(C)C)cc3)c2c1"
Given back: FALSE

Asked: Hi team, can someone confirm the assay call for "O=C(Nc1ccc(Nc2ncnc3sc4c(c23)CCOC4)cc1)Nc1ccc(Cl)c(C(F)(F)F)c1" ?
Given back: FALSE

Asked: Record lookup: outcome of this test for COc1ccc(C2OC(c3cc(-c4cc5ccccc5o4)nn3-c3ccccc3)=NN2C(C)=O)cc1 (stereo not given) ?
Given back: FALSE

Asked: Name the outcome recorded for "C#Cc1cccc(Nc2ncnc3cc(OCCOC)c(OCCOC)cc23)c1" in the assay.
Given back: FALSE

Asked: Hey, what did the test say about "C[C@]12O[C@H](C[C@]1(O)CO)n1c3ccccc3c3c4c(c5c6ccccc6n2c5c31)CNC4=O" ?
Given back: TRUE

Asked: Answer briefly: the call reported for "COc1ccc2c(CCCc3ccc(Cl)cc3Cl)c3[n+](cc2c1OC)CCc1cc2c(cc1-3)OCO2" in this assay.
Given back: TRUE

Next:
Asked: Short answer needed: outcome of this test for CCCC(=O)OCC1OC(n2cnc3c(=S)nc(N)[nH]c32)C(OC(=O)CCC)C1OC(=O)CCC (stereo not given) ?
Given back: FALSE

Asked: Please indicate how the test categorized "C=CC(=O)Nc1cc(Nc2nccc(-c3cn(C)c4ccccc34)n2)c(OC)cc1N(C)CCN(C)C" .
Given back: TRUE

Asked: Short answer needed: outcome of this test for "CC(=O)NCC(=O)N1[C@@H]2CC[C@H]1c1ccc(Nc3ncc(C(F)(F)F)c(NC4CCC4)n3)cc12" ?
Given back: TRUE

###

Parameter growth: see the listing below.
# Test system: M14 melanoma
# experiment: NCI-60 one-dose screen, 48 h (100 = growth as untreated, 0 = no growth, -100 = all killed)
# condition: 10 µM unless noted
The panel holds about 83,000 compounds, 20% with a hit somewhere; the sample as a whole holds those more often. Active and inactive are the calls of the source. How the source made its calls: active means growth percent below 10; inactive means the rest.

# count of solved cases: 6
Sure, the documented growth for "C=C1CC[C@@H]2[C@](C)(COC(C)=O)[C@H](OC(C)=O)CC[C@@]2(C)[C@@H]1C/C=C1/C(=O)OC[C@H]1OC(C)=O" is 35.4% (inactive)

Noted for "COc1ccc(Cl)c(Nc2nc3ccccc3nc2NS(=O)(=O)c2cccc(NC(=O)C(C)(C)N)c2)c1" : its growth reads 51.7% (inactive)

The reported value for "Nc1c(Cl)cccc1[N+](=O)[O-]" in terms of growth is 108% (inactive)

Record "COc1cc2c(Nc3ccc(Br)cc3F)ncnc2cc1OCC1CCN(C)CC1" , field growth: -82.5% (active)

# growth (compound: "c1cc[n+](Cc2c3ccccc3cc3c2ccc2ccccc23)cc1" ) is 62.3% (inactive)

Recorded result, "CCN(CC)CCNc1ccc(N=Nc2cnc3ccccc3c2)c2ccccc12" , growth: -67.3% (active)

Continuing:
growth reading for "COc1cc(-c2nc(C(=O)NCC(=O)O)nn2-c2ccc(Cl)cc2)cc(OC)c1OC" : 98.5% (inactive)

Looking up "Cc1c(NC(=O)OC[C@@H]2COCCN2)cn2ncnc(Nc3ccc4c(cnn4Cc4cccc(F)c4)c3)c12" , I see its growth listed as -29.3% (active)
